target or test system: Cannabinoid receptor (Homo sapiens) (UniProt P34972+P21554)
Sequence (P21554 whole entry, looked up): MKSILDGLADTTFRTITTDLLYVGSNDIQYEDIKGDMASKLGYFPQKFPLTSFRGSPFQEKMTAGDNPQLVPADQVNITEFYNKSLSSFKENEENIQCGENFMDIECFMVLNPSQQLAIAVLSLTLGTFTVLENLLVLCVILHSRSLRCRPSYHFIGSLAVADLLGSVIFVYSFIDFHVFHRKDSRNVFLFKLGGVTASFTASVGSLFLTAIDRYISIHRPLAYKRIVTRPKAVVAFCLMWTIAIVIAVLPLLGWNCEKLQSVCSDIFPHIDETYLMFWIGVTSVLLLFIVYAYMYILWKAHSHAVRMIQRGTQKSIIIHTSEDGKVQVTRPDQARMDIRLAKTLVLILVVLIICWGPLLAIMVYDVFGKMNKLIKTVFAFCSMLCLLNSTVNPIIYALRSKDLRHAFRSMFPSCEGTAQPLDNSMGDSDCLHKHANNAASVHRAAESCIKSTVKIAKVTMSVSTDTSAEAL
Sequence (P34972 whole entry, looked up): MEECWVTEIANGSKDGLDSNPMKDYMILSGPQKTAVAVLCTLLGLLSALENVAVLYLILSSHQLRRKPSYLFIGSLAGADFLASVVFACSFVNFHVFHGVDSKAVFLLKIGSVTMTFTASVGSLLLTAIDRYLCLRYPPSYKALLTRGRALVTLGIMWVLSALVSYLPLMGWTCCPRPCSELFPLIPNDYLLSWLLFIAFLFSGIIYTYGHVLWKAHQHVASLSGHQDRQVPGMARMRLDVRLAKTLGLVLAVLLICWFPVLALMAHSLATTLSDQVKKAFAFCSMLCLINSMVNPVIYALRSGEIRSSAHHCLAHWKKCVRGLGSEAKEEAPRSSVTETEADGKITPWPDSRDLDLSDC
test method notes: Selectivity for human CB2 receptor over human CB1 receptor
Assay type: protein assay
// returns false unless Ratio Ki is strictly below 4, in which case true

{"item smiles": "CCCCCCC(C)(C)c1ccc(-c2cc(C)cc(C)c2)c(CN2CCOCC2)c1", "label value": "false"}
{"item smiles": "CCCCCCC(C)(C)c1ccc(-c2ccccc2N)c(O)c1", "label value": "true"}
{"item smiles": "CCCCCCC(C)(C)c1ccc(-c2cc(C)cc(C)c2)c(N)c1", "label value": "true"}
{"item smiles": "CCCCCCC(C)(C)c1ccc(-c2cccc(C)c2C)c(O)c1", "label value": "true"}
{"item smiles": "COC(=O)CCC(C)(C)c1ccc(-c2cc(C)cc(C)c2)c(O)c1", "label value": "false"}
{"item smiles": "CCCCCCC(C)(C)c1ccc(-c2cccc(OC)c2)c(O)c1", "label value": "true"}
{"item smiles": "CCCCCCC1(c2ccc(-c3cc(C)cc(C)c3)c(O)c2)CCCC1", "label value": "true"}
{"item smiles": "Cc1cc(C)cc(-c2ccc(C(C)(C)CCCO)cc2O)c1", "label value": "false"}
{"item smiles": "CCCCCCC(C)(C)c1ccc(-c2ccccc2OC)c(O)c1", "label value": "true"}
